ASSAY SUMMARY: Metabolic stability in liver microsomes, Method I, rat
Type: in vitro ADME
TEST CONDITIONS: male, Sprague-Dawley, rat, liver microsomes, 1 μM test compound
With a cut-off of 40 µL/min/mg, any microsomal CLint at 1 μM strictly below it is called condition met; any microsomal CLint at 1 μM meeting it or above is called condition not met.

{"columns": ["COMPOUND", "CATEGORY LABEL"],
 "data": [
  ["Cc1cc(-c2cnc([C@H](C)Nc3nccc(N4C(=O)OC[C@@H]4[C@H](C)F)n3)nc2)ccc1F", "condition not met"],
  ["C[C@H](Nc1nccc(N2C(=O)OC[C@@H]2[C@@H](C)N)n1)c1cnc(-c2ccc(Cl)cc2)s1", "condition not met"],
  ["C[C@H](Nc1nccc(N2C(=O)OC[C@@H]2[C@H](C)O)n1)c1ccc(CN2CCN(C)C(C)(C)C2)c(F)c1", "condition not met"],
  ["CC(Nc1nccc(N2C(=O)OC[C@@H]2[C@@H](C)O)n1)c1nc(-c2ccc(OC(F)(F)F)cc2)no1 (single isomer, unassigned)", "condition not met"],
  ["Cc1ccc(-c2noc(C(C)Nc3ncc(F)c(N4C(=O)OC[C@@H]4[C@@H](C)O)n3)n2)cc1F (single isomer, unassigned)", "condition not met"],
  ["C[C@H](Nc1nccc(N2C(=O)OC[C@@H]2[C@H](C)F)n1)c1ccc(-c2ccnc(C(F)(F)F)c2)cn1", "condition met"]
]}

Values from patent US9434719B2
